Values were extracted from the Immune Epitope Database (IEDB).

# test system: HLA-A*03:01
# method summary: IEDB peptide-MHC binding, purified MHC/direct/fluorescence; filed as Kd, often an IC50 or EC50 that approximates it; bounds were set here for any values at or beyond the usual limits of such assays
# condition set: source organism: Ebola virus - Gabon (1994-1997)
pKd: −log10 of the molar value.
measure: pKd

[Q] Which pKd value belongs to YFTFDLTAL ?
[A] ≤ 4.70

---

# test system: HLA-B*39:01
# method summary: IEDB peptide-MHC binding, purified MHC/competitive/fluorescence; filed as Kd, often an IC50 or EC50 that approximates it; bounds were set here for any values at or beyond the usual limits of such assays
# condition set: source organism: Human herpesvirus 5 strain Towne
measure: Kd

[Q] Recorded Kd of LPLKMLNIPSINVH , please.
[A] ≥ 20 µM

---

# test system: HLA-A*02:17
# method summary: IEDB peptide-MHC binding, purified MHC/competitive/radioactivity; filed as Kd, often an IC50 or EC50 that approximates it; bounds were set here for any values at or beyond the usual limits of such assays
# condition set: source organism: Dengue virus 2 Jamaica/1409/1983
measure: Kd (nM)
Entry rule: numbers only, all in nM.

# sequence string, test system, measure, units of measure, value reported
rows = [
    ("GLLTVCYVL", "HLA-A*02:17", "Kd", "nM", 802),
    ("LLLLVAHYA", "HLA-A*02:17", "Kd", "nM", 7930),
]

[Q] # lookup: Kd of LLLLVAHYAI
[A] 434

---

# test system: HLA-A*01:01
# method summary: IEDB peptide-MHC binding, purified MHC/direct/fluorescence; filed as Kd, often an IC50 or EC50 that approximates it; bounds were set here for any values at or beyond the usual limits of such assays
# condition set: source organism: Vibrio vulnificus
measure: Kd

[Q] Item QSPQPVRVK has what recorded Kd?
[A] ≥ 20 µM

---

# test system: HLA-B*15:01
# method summary: IEDB peptide-MHC binding, purified MHC/direct/fluorescence; filed as Kd, often an IC50 or EC50 that approximates it; bounds were set here for any values at or beyond the usual limits of such assays
# condition set: source organism: Influenza A virus (A/Ck/HK/2133.1/2003(H5N1))
measure: Kd

[Q] Kd of SADPLASLL on HLA-B*15:01?
[A] ≥ 20 µM

---

# test system: HLA-B*53:01
# method summary: IEDB peptide-MHC binding, purified MHC/competitive/radioactivity; filed as Kd, often an IC50 or EC50 that approximates it; bounds were set here for any values at or beyond the usual limits of such assays
# condition set: source organism: Lymphocytic choriomeningitis virus (strain Armstrong)
measure: Kd (nM)
Reply with just the number (in nM).

[Q] Kd for MPSEDGAEAL ?
[A] 1730

---

# test system: HLA-B*44:03
# method summary: IEDB peptide-MHC binding, purified MHC/competitive/radioactivity; filed as Kd, often an IC50 or EC50 that approximates it; bounds were set here for any values at or beyond the usual limits of such assays
# condition set: source organism: Dengue virus 4 Dominica/814669/1981
measure: pKd
Lab note — pKd values are minus log10 of concentrations in M.

[Q] Recorded pKd for AERIGEPDY , please?
[A] 6.10

---

# test system: HLA-B*35:01
# method summary: IEDB peptide-MHC binding, purified MHC/competitive/fluorescence; filed as Kd, often an IC50 or EC50 that approximates it; bounds were set here for any values at or beyond the usual limits of such assays
# condition set: source organism: Vaccinia virus Copenhagen
measure: Kd
Output should be the measured figure followed by the unit it is expressed in.

[Q] Observed Kd on HLA-B*35:01 for YHRFGLYRL , please.
[A] 2.7 µM

---

# test system: HLA-B*46:01
# method summary: IEDB peptide-MHC binding, purified MHC/competitive/fluorescence; filed as Kd, often an IC50 or EC50 that approximates it; bounds were set here for any values at or beyond the usual limits of such assays
# condition set: source organism: Encephalitozoon cuniculi GB-M1
measure: Kd

[Q] Returns the measured Kd for the input sequence. Input: NLFEIEWEE
[A] ≥ 20 µM

---

# test system: HLA-A*26:01
# method summary: IEDB peptide-MHC binding, purified MHC/direct/fluorescence; filed as Kd, often an IC50 or EC50 that approximates it; bounds were set here for any values at or beyond the usual limits of such assays
# condition set: source organism: Vibrio vulnificus YJ016
pKd: −log10 of the molar value.
measure: pKd

[Q] What value of pKd has been reported for the following sequence? VVYKEAKIK
[A] ≤ 4.70

---

# test system: HLA-A*02:01
# method summary: IEDB peptide-MHC binding, purified MHC/competitive/fluorescence; filed as Kd, often an IC50 or EC50 that approximates it; bounds were set here for any values at or beyond the usual limits of such assays
# condition set: source organism: Encephalitozoon cuniculi GB-M1
pKd: −log10 of the molar value.
measure: pKd

[Q] State the recorded pKd for this entry: NLFEIEWEE
[A] ≤ 4.70

---

# test system: HLA-A*30:01
# method summary: IEDB peptide-MHC binding, purified MHC/direct/fluorescence; filed as Kd, often an IC50 or EC50 that approximates it; bounds were set here for any values at or beyond the usual limits of such assays
# condition set: source organism: Ravn virus - Ravn, Kenya, 1987
pKd: −log10 of the molar value.
measure: pKd

[Q] I am curious: what pKd value has been reported for VPAWLPLGI ?
[A] ≤ 4.70

---

# test system: HLA-A*31:01
# method summary: IEDB peptide-MHC binding, purified MHC/competitive/fluorescence; filed as Kd, often an IC50 or EC50 that approximates it; bounds were set here for any values at or beyond the usual limits of such assays
# condition set: source organism: Burkholderia mallei FMH
measure: pKd
In plain terms, pKd is the concentration in mol/L turned into minus its base-10 logarithm.

[Q] Find the recorded pKd belonging to LTQRRTTPR and report it.
[A] 7.88

---

The reader will find reported Kd values listed item by item below.
# test system: HLA-B*07:02
# method summary: IEDB peptide-MHC binding, purified MHC/competitive/radioactivity; filed as Kd, often an IC50 or EC50 that approximates it; bounds were set here for any values at or beyond the usual limits of such assays
# condition set: source organism: Dengue virus 3 Martinique/1243/1999
Field: numeric (nM). Do not append units.

# sequence string, test system, Kd (nM)
measured = [
    ("QPFLALGFFL", "HLA-B*07:02", 577),
]

Shifting focus to the sequence that follows.
[Q] Notebook: pull reported Kd for HLA-B*07:02, entry RPTPTGTVM
[A] 1.98

---

# test system: HLA-A*24:02
# method summary: IEDB peptide-MHC binding, purified MHC/competitive/fluorescence; bounds were set here for any values at or beyond the usual limits of such assays
# condition set: source organism: Sudan ebolavirus
measure: IC50

Known results for sequences:
# sequence string, test system, IC50
rows = [
    ("AGIAWIPYF", "HLA-A*24:02", "2.64 µM"),
    ("PSATKRWGF", "HLA-A*24:02", "10.2 µM"),
]

Query sequence follows.
[Q] Any idea what IC50 came out for FQKAFSMPL on HLA-A*24:02?
[A] 27.5 µM

---

# test system: HLA-B*27:05
# method summary: IEDB peptide-MHC binding, purified MHC/direct/fluorescence; filed as Kd, often an IC50 or EC50 that approximates it; bounds were set here for any values at or beyond the usual limits of such assays
# condition set: source organism: Bacillus anthracis
measure: Kd

[Q] Which measured Kd value corresponds to FTDNNELEF ?
[A] ≥ 20 µM

---

# test system: HLA-A*01:01
# method summary: IEDB peptide-MHC binding, purified MHC/direct/fluorescence; filed as Kd, often an IC50 or EC50 that approximates it; bounds were set here for any values at or beyond the usual limits of such assays
# condition set: source organism: Giardia lamblia ATCC 50803
measure: pKd
Scale: negative log10 of molar concentration, which is what pKd denotes.

# sequence string, value reported
data = [
    ("QTSTLYDFY", 7.40),
]

Proceed to the following item.
[Q] Item under review: WSFLEDRVY . Reported pKd?
[A] 5.64

---

# test system: HLA-A*24:03
# method summary: IEDB peptide-MHC binding, purified MHC/competitive/fluorescence; filed as Kd, often an IC50 or EC50 that approximates it; bounds were set here for any values at or beyond the usual limits of such assays
# condition set: source organism: Shigella boydii CDC 3083-94
pKd: −log10 of the molar value.
measure: pKd

[Q] Can you share its pKd? I mean this sequence: RNNDPTLPY
[A] ≤ 4.70

---

This section presents sequences with their documented Kd values.
# test system: HLA-A*31:01
# method summary: IEDB peptide-MHC binding, purified MHC/direct/fluorescence; filed as Kd, often an IC50 or EC50 that approximates it; bounds were set here for any values at or beyond the usual limits of such assays
# condition set: source organism: Giardia lamblia ATCC 50803

// solved cases for Kd follow
# sequence string, Kd
data = [
    ("SDRLHHDPL", "≥ 20 µM"),
    ("WSFLEDRVY", "≥ 20 µM"),
]

Attention now shifts to the item below.
[Q] Value lookup for Kd; key = QTSTLYDFY
[A] ≥ 20 µM
